- ASSAY EXPLANATION: yeast display, Sf9 membrane polyspecificity reagent, FACS + sequencing; frameworks hold sequencing errors
PROPERTY NAME: polyreactivity (PSR sort gate)

QVQLVESGGGLVQAGGSLRLSCAASGFTIKYNTMGWYRQAPGKERELVAAITSNTGSTYYADSVKGRFTISRDNAKNTVYLQMNSLKPEDTAVYYCAVTSYYRRYGYWGQGTQVTVSS : high polyreactivity
QDQLVESRVGLVQAGGSLRLSCAATGFTFLSYTMGWYIQAPCKERELLADNTRSGGSTYYADSVKGRFTISRDNAKNSVYLQMNSLKPEDTAVYFCAARYSYDRYRGSQQFYYWGQGTQVTVSS : high polyreactivity
QVQLVESGGGLVQAGGSLRLSCAASGRISGYAMGWDRQAPGKERELVAAISTRGGTTYYADSVKGRFTISRDNAKNTVQLQMNSLKPEDTAVYYCNAASSRWPEYDYWGQGTQVTVSS : high polyreactivity
